Target or system 5-hydroxytryptamine receptor 2A (Rattus norvegicus): recorded pIC50 listed per item.
Note: pIC50 values are expressed as the negative base-10 logarithm of concentration in M.

Consider the reported pIC50 for these molecules:
substance_smiles=C[C@H](N)Cn1ncc2ccc(O)c(I)c21 result_number=8.77
substance_smiles=COc1ccc2cnn(C[C@H](C)N)c2c1 result_number=8.72
substance_smiles=C[C@@H](N)Cn1ncc2ccc(O)cc21 result_number=8.68

Now consider the entry below.
Fill in the blank: the reported pIC50 of COc1cc(C[C@@H](C)N)c(OC)cc1I is ____.
9.68

----------
Listing of entries alongside the reported Emax.
Target: 5-hydroxytryptamine receptor 2A (Rattus norvegicus)
Sequence (P14842 whole entry): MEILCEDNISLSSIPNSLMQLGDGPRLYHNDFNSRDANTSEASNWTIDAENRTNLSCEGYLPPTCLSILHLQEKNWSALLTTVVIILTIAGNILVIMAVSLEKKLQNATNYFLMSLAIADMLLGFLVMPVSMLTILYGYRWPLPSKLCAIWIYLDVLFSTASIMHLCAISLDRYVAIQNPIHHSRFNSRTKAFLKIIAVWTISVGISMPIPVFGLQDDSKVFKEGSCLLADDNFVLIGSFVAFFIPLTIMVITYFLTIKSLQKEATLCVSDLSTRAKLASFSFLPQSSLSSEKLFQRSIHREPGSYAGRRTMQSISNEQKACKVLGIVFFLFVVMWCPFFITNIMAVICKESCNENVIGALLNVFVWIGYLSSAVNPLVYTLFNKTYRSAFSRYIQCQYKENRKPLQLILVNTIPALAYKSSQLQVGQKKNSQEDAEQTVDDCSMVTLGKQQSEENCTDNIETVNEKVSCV
Assay: Activity against 5HT2A mediated intracellular calcium mobilization by FLIPR in rat vascular smooth muscle cells
Type: functional, cell-based
Report the value in % with no unit label.

substance_smiles=C[C@H](N)Cn1ncc2ccc(O)c(Cl)c21 property_name=Emax result_number=87
substance_smiles=C[C@H](N)Cn1ncc2ccc(O)c(F)c21 property_name=Emax result_number=80

Look up Emax for this compound: NCCc1c[nH]c2ccc(O)cc12
99
